// data source = paper PMC9271885

test summary: in vitro
condition: African green monkey, CC50, Vero E6 cells, no virus
measured quantity: CC50 at 2 days

// query Query (molecule): CC(=O)Oc1ccccc1C(=O)Nc1ncc([N+](=O)[O-])s1 [NTZ, Nitazoxanide] ; field requested: CC50 at 2 days
// result > 60 µM

----------
test summary: Quantification of TIZ in plasma, lung and nasal turbinates of hamsters (HPLC-UV)
Format: in vivo, Syrian hamsters
condition: Syrian, hamster, in vivo, 2.8 mg/kg/day TID, multiple dose, infected animals, nitazoxanide IN 2,8 mg/kg/day TID, 12h post-administration, individual animals; read-out: Lung to plasma ratio
measured quantity: Kp at 12 h

// query Query (molecule): O=C(Nc1ncc([N+](=O)[O-])s1)c1ccccc1O [TIZ, tizoxanide] ; field requested: Kp at 12 h
// result 12.8

----------
Test system: Vero E6 cells
test summary: in vitro
condition: African green monkey, 2 days
measured quantity: CC50

// query Query (compound): O=C(Nc1ncc([N+](=O)[O-])s1)c1ccccc1O [TIZ, tizoxanide] ; field requested: CC50
// result > 100 µM

----------
test summary: Population pharmacokinetic modelling and simulation of TIZ in hamster (LC-MS/MS, NONMEM)
condition: Syrian, in vivo, po
measured quantity: half-life (min)
Numbers only, in min.

// query Query (molecule): O=C(Nc1ncc([N+](=O)[O-])s1)c1ccccc1O [TIZ, tizoxanide] ; field requested: half-life
// result 48

----------
test summary: Quantification of TIZ in plasma, lung and nasal turbinates of hamsters (HPLC-UV)
Format: in vivo, Syrian hamsters
condition: hamster, in vivo, 2.8 mg/kg/day, multiple dose, infected animals, nitazoxanide IN 2,8 mg/kg/day TID, 12h post-administration, individual animals; read-out: Tizoxanide concentration in lungs
measured quantity: concentration at 12 h (ng/g)
Answers are plain numbers, in ng/g.

// query Query (compound): O=C(Nc1ncc([N+](=O)[O-])s1)c1ccccc1O [TIZ, tizoxanide] ; field requested: concentration at 12 h
// result 103

----------
test summary: Quantification of TIZ in plasma, lung and nasal turbinates of hamsters (HPLC-UV)
Format: in vivo, Syrian hamsters
condition: hamster, in vivo, po, 13.5 mg, single oral dose 13.5mg NTZ, uninfected hamsters, 2 h post-treatment, individual values; read-out: L/p ratio (%)
measured quantity: Kp at 2 h
Numbers only.

// query Query (compound): O=C(Nc1ncc([N+](=O)[O-])s1)c1ccccc1O [TIZ, tizoxanide] ; field requested: Kp at 2 h
// result 0.027

----------
test summary: Quantification of TIZ in plasma, lung and nasal turbinates of hamsters (HPLC-UV)
Format: in vivo, Syrian hamsters
condition: Syrian, hamster, in vivo, 2.8 mg/kg/day, multiple dose, infected animals, nitazoxanide IN 2,8 mg/kg/day TID, 12h post-administration, individual animals; read-out: Tizoxanide concentration in blood
measured quantity: concentration at 12 h (nM)
Give bare numbers, in nM.

// query Query (compound): O=C(Nc1ncc([N+](=O)[O-])s1)c1ccccc1O [TIZ, tizoxanide] ; field requested: concentration at 12 h
// result 30

----------
test summary: Quantification of TIZ in plasma, lung and nasal turbinates of hamsters (HPLC-UV)
Assay type: in vivo, Syrian hamsters
condition: hamster, in vivo, 13.5 mg, single dose nitazoxanide 13.5mg, uninfected animals, 4h post-administration, individual animals; read-out: Lung to plasma ratio
measured quantity: Kp at 4 h
One number for each entry.

// query Query (molecule): O=C(Nc1ncc([N+](=O)[O-])s1)c1ccccc1O [TIZ, tizoxanide] ; field requested: Kp at 4 h
// result 0.042
